tested.on: Potassium voltage-gated channel subfamily A member 1 (Homo sapiens, UniProt Q09470)
Sequence (Q09470 whole entry): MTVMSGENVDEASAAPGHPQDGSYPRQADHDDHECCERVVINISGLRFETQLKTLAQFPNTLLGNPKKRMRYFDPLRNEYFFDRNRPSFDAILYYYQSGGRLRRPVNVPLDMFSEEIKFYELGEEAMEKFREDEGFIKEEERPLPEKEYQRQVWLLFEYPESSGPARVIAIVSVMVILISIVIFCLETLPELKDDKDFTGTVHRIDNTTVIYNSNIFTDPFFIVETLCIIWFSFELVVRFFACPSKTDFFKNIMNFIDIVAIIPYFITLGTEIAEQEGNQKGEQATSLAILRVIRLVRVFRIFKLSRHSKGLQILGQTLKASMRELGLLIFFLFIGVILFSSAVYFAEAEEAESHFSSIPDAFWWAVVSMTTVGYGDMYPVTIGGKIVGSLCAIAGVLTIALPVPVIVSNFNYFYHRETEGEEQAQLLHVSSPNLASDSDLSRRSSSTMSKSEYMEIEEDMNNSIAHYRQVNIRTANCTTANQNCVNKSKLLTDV
protocol.details: Inhibition of Kv1.1 (unknown origin) expressed in Xenopus laevis Oocyte cells by electrophysiological recording
measurement.type: IC50 (nM)
// units = nM; emit number, no label

Incoming: Recorded IC50 for "CCCNC(=O)O[C@H]1CC[C@@](CNC(=O)c2ccccc2OC)(c2ccsc2)CC1" , please?
Outgoing: 124

###

tested.on: Potassium voltage-gated channel subfamily A member 3 (Homo sapiens, UniProt P22001)
Sequence (P22001 whole entry): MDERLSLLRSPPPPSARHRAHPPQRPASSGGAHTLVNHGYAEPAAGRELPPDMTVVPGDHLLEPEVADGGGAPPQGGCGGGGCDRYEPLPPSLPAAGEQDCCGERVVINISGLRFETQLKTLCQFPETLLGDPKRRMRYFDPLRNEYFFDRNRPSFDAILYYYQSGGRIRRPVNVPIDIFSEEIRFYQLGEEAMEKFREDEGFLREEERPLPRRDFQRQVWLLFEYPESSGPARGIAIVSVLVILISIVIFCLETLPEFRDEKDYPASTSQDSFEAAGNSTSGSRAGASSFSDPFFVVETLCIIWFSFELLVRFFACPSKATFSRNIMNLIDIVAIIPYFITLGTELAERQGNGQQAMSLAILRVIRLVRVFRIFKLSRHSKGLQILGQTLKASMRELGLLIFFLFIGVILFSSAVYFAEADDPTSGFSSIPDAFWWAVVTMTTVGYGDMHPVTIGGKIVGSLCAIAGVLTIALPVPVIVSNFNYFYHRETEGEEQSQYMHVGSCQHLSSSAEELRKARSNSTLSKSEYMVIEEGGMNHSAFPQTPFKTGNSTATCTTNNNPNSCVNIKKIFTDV
protocol.details: Inhibition of human Kv1.3 expressed in mouse LTK- cells by manual patch clamp electrophysiological recording
Assay type: cell-based
Threshold 0.5 µM: IC50 strictly smaller gives Criterion met, otherwise Criterion not met.

Completed entries (count: 5):
COc1ccccc1C(=O)NCC1(c2ccsc2)CCC(=O)CC1 | Criterion not met
COc1ccccc1C(=O)NC[C@]1(c2cccs2)CC[C@H](O)CC1 | Criterion met
CNC(=O)O[C@H]1CC[C@](CNC(=O)c2ccccc2OC)(c2cccs2)CC1 | Criterion met
COc1ccccc1C(=O)NCC1(c2cccs2)CCC(=O)CC1 | Criterion not met
COCCCNC(=O)O[C@H]1CC[C@](CNC(=O)c2ccccc2OC)(c2cccs2)CC1 | Criterion not met

Incoming: # strict comparison: is reported IC50 < 0.5 µM? input = "COCCCNC(=O)O[C@H]1CC[C@](CNC(=O)c2ccccc2OC)(c2ccsc2)CC1"
Outgoing: Criterion not met

Incoming: # strict comparison: is reported IC50 < 0.5 µM? input = "CNC(=O)O[C@H]1CC[C@@](CNC(=O)c2ccccc2OC)(c2cccs2)CC1"
Outgoing: Criterion met

Incoming: # strict comparison: is reported IC50 < 0.5 µM? input = "CNC(=O)O[C@H]1CC[C@@](CNC(=O)c2ccccc2OC)(c2ccsc2)CC1"
Outgoing: Criterion met

Incoming: # strict comparison: is reported IC50 < 0.5 µM? input = "COc1ccccc1C(=O)NC[C@]1(c2ccsc2)CC[C@H](O)CC1"
Outgoing: Criterion met

Incoming: # strict comparison: is reported IC50 < 0.5 µM? input = "CCCNC(=O)O[C@H]1CC[C@@](CNC(=O)c2ccccc2OC)(c2ccsc2)CC1"
Outgoing: Criterion met

###

tested.on: Potassium voltage-gated channel subfamily A member 3 (Homo sapiens, UniProt P22001)
protocol.details: Inhibition of Kv1.3 (unknown origin) expressed in CHO cells incubated for 10 mins by 86Rb+ efflux assay
Type: cell-based
measurement.type: IC50
Give me the value, and tack the unit on after it.

Incoming: Recorded IC50 for "COc1ccccc1C(=O)NCC1(c2ccccc2)CCC(=O)CC1" , please?
Outgoing: 0.26 µM

###

tested.on: hERG (KCNH2) (Homo sapiens)
Sequence (Q12809 whole entry): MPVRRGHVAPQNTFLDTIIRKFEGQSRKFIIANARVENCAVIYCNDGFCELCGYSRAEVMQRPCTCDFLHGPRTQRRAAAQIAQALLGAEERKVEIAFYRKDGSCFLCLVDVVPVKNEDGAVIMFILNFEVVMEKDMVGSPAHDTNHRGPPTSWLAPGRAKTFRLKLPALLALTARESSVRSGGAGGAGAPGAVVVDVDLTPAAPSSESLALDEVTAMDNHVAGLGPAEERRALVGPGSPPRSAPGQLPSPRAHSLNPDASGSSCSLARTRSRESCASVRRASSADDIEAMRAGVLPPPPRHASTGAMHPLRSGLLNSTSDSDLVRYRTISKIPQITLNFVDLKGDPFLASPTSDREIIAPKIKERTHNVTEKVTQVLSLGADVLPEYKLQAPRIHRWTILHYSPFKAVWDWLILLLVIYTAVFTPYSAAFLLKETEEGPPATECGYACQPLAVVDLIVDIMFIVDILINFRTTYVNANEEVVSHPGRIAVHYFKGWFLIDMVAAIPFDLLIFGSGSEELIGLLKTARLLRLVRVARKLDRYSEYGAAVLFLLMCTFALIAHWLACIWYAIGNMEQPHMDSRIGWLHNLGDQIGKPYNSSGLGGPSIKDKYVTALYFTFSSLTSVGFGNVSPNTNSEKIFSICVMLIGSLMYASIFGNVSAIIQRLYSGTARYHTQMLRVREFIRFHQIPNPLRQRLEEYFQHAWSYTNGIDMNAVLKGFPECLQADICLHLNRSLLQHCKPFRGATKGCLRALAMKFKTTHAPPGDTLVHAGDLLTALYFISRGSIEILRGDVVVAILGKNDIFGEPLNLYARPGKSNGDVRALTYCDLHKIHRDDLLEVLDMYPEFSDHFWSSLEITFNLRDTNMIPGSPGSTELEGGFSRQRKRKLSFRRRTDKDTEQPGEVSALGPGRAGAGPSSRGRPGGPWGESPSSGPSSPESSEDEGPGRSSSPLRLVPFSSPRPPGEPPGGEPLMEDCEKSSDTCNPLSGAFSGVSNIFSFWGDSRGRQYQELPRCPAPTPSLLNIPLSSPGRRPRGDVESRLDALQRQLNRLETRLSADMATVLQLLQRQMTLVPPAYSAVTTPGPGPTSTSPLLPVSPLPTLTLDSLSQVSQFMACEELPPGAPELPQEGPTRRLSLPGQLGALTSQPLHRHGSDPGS
protocol.details: Inhibition of hERG overexpressed in HEK293 cells at 5 uM relative to control
Format: toxicity, cell-based
test.conditions: HEK293 cells overexpressing hERG
measurement.type: inhibition at 5 µM (%)
// units = %; emit number, no label

Please review the following examples before continuing.
CCCNC(=O)O[C@H]1CC[C@@](CNC(=O)c2ccccc2OC)(c2ccsc2)CC1 | 21
CNC(=O)O[C@H]1CC[C@@](CNC(=O)c2ccccc2OC)(c2ccsc2)CC1 | 19
O=C(NC[C@]1(c2cccs2)CC[C@@H](O)CC1)c1ccoc1 | 21

Turning now to a further compound:
Incoming: Recorded inhibition at 5 µM for "COc1ccccc1C(=O)NC[C@]1(c2ccsc2)CC[C@H](O)CC1" , please?
Outgoing: 15
